- experimental-target: CypF (Homo sapiens (Human), UniProt P30405)
- Sequence (P30405 30-207): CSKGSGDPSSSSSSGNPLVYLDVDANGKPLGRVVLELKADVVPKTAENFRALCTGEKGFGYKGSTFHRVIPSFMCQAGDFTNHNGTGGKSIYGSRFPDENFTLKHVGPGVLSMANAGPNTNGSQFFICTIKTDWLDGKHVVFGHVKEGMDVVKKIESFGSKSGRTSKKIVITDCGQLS
- test-description: Inhibitor binding to cyclophilin proteins by SPR, CypF
- experimental-parameters: 1:1 binding model
Starred links: 1 amine or outer side, 2 acyl side, 3 side chain; linkers in the order of their positions; H or OH if unused. Non-standard residues stand in square brackets, D forms with d. Residues, ends and D or L forms follow the SMILES beside them. X31 = C[C@H](CN1C[C@H](C)OC[C@@H]1C)[C@@H](C(=O)[*:2])N(C)[*:1]; X48 = C[C@@H](CN1CCN(S(C)(=O)=O)CC1)[C@@H](C(=O)[*:2])N(C)[*:1]; MeBmt = C/C=C/C[C@@H](C)[C@@H](O)[C@H](NC)C(=O)O; NMeL = CN[C@@H](CC(C)C)C(=O)O; NMeV = CN[C@H](C(=O)O)C(C)C; dNMeA = CN[C@H](C)C(=O)O; Abu = CC[C@H](N)C(=O)O
CypF Kd overview
Report as: number unit

{"compound": "C/C=C/C[C@@H](C)[C@@H](O)[C@H]1C(=O)N[C@@H](CC)C(=O)N(C)[C@H](C)C(=O)N(C)[C@@H]([C@H](C)CN2C[C@H](C)OC[C@@H]2C)C(=O)N[C@@H](C(C)C)C(=O)N(C)[C@@H](CC(C)C)C(=O)N[C@@H](C)C(=O)N[C@H](C)C(=O)N(C)[C@@H](CC(C)C)C(=O)N(C)[C@@H](CC(C)C)C(=O)N(C)[C@@H](C(C)C)C(=O)N1C [Compound 2.5.6] (cyclo(A[dA][NMeL][NMeL][NMeV][MeBmt][Abu][dNMeA][X31]V[NMeL]))", "CypF Kd": "2.5 nM"}

Please examine the following record next.
Value of measured CypF Kd for the entry C/C=C/C[C@@H](C)[C@@H](O)[C@H]1C(=O)N[C@@H](CC)C(=O)N(C)[C@H](C)C(=O)N(C)[C@@H]([C@@H](C)CN2CCN(S(C)(=O)=O)CC2)C(=O)N[C@@H](C(C)C)C(=O)N(C)[C@@H](CC(C)C)C(=O)N[C@@H](C)C(=O)N[C@H](C)C(=O)N(C)[C@@H](CC(C)C)C(=O)N(C)[C@@H](CC(C)C)C(=O)N(C)[C@@H](C(C)C)C(=O)N1C [Compound 2.17.9] (cyclo(A[dA][NMeL][NMeL][NMeV][MeBmt][Abu][dNMeA][X48]V[NMeL])) : 0.5 nM
